Test system: Physalospora piricola
Assay: Fungicidal activity, fungi growth rate method, PP
Assay type: cell-based
Conditions: 50 μg/mL; read-out: Fungicidal activity (inhibition) against PP: Physalospora piricola
measuredMetric: inhibition at 50 µg/mL

// worked examples, inhibition at 50 µg/mL included
[
  {
    "molecule": "O=C(N/C(=C\\c1ccccc1)C(=O)N1CCC(O)(c2ccc(Br)cc2)CC1)c1ccc(F)cc1",
    "studyTarget": "Physalospora piricola",
    "inhibition at 50 µg/mL": "49%"
  },
  {
    "molecule": "O=C(N/C(=C\\c1ccccc1)C(=O)N1CCC(O)(c2ccc(Br)cc2)CC1)c1ccccc1 [Compound 76, reference compound]",
    "studyTarget": "Physalospora piricola",
    "inhibition at 50 µg/mL": "15%"
  },
  {
    "molecule": "CONC(=O)/C(=C/c1csc(C2CCN(C(=O)OC(C)(C)C)CC2)n1)NC(=O)c1ccccc1",
    "studyTarget": "Physalospora piricola",
    "inhibition at 50 µg/mL": "44%"
  },
  {
    "molecule": "O=C(NCc1ccccc1)/C(=C/c1ccccc1)NC(=O)c1ccccc1",
    "studyTarget": "Physalospora piricola",
    "inhibition at 50 µg/mL": "< 20%"
  }
]

Then there is this molecule:
So what's the measured inhibition at 50 µg/mL for this one? O=C(N/C(=C\c1cccs1)C(=O)N1CCC(O)(c2ccc(Br)cc2)CC1)c1ccccc1
< 20%

* * *

// values below are reported inhibition at 50 µg/mL
System: wheat Gibberella zeae
Experiment: microbe, parasite or virus in culture
Type: cell-based
Conditions: Fusarium graminearum, read-out: Fungicidal activity, inhibition, GZ

Some compounds with known inhibition at 50 µg/mL results, for comparison:
[
  {
    "compound": "O=C(N/C(=C\\c1ccccc1)C(=O)N1CCC(O)(c2ccc(Br)cc2)CC1)c1ccccc1[N+](=O)[O-] [Compound 12]",
    "studyTarget": "wheat Gibberella zeae",
    "result": "39%"
  },
  {
    "compound": "O=C(N/C(=C\\c1ccco1)C(=O)N1CCC(O)(c2ccc(Br)cc2)CC1)C1CCCCC1 [Compound 63]",
    "studyTarget": "wheat Gibberella zeae",
    "result": "57%"
  },
  {
    "compound": "O=C(N/C(=C\\c1ccc(Br)cc1)C(=O)N1CCC(O)(c2ccc(Br)cc2)CC1)c1ccccc1 [Compound 19]",
    "studyTarget": "wheat Gibberella zeae",
    "result": "5%"
  },
  {
    "compound": "O=C(N/C(=C\\c1ccccc1)C(=O)N1CCOCC1)c1ccccc1 [Compound 38]",
    "studyTarget": "wheat Gibberella zeae",
    "result": "6%"
  },
  {
    "compound": "O=C(N/C(=C\\c1ccccc1)C(=O)N1CCC(c2nc(CO)cs2)CC1)c1ccccc1 [Compound 31]",
    "studyTarget": "wheat Gibberella zeae",
    "result": "7%"
  }
]

I am curious: what inhibition at 50 µg/mL value has been reported for O=C(NCc1ccc(C(F)(F)F)cc1)/C(=C/c1ccccc1)NC(=O)c1ccccc1 [Compound 57] ?
31%

Name the recorded inhibition at 50 µg/mL for O=C(N/C(=C\c1ccccc1)C(=O)N1CCC(O)(c2ccc(Br)cc2)CC1)c1ccc(F)cc1 [Compound 6] .
44%

Field request: inhibition at 50 µg/mL | item: Cc1snnc1/C=C(\NC(=O)c1ccccc1)C(=O)O [Compound 70]
21%

* * *

Tested on: wheat Gibberella zeae
Experiment: microbe, parasite or virus in culture
Type: cell-based
Details: Fusarium graminearum, read-out: Fungicidal activity, inhibition, GZ
measuredMetric: inhibition at 50 µg/mL (%)
Lab book: enter the figure in %, no units written.

[
  {
    "chemicalSmiles": "CC(C)(C)OC(=O)N1CCC(c2nc(/C=C(\\NC(=O)c3ccccc3)C(=O)NCc3ccc(Br)cc3)cs2)CC1",
    "unitsOfMeasure": "%",
    "inhibition at 50 µg/mL": 22
  },
  {
    "chemicalSmiles": "O=C(NCc1ccc(Br)cc1)/C(=C/c1ccccc1)NC(=O)C1CC1",
    "unitsOfMeasure": "%",
    "inhibition at 50 µg/mL": 16
  },
  {
    "chemicalSmiles": "O=C(N/C(=C\\c1ccc([N+](=O)[O-])cc1)C(=O)N1CCC(O)(c2ccc(Br)cc2)CC1)c1ccccc1",
    "unitsOfMeasure": "%",
    "inhibition at 50 µg/mL": 19
  },
  {
    "chemicalSmiles": "O=C(N/C(=C\\c1ccccc1)C(=O)N1CCC(O)(c2ccc(Br)cc2)CC1)C1CCCCC1",
    "unitsOfMeasure": "%",
    "inhibition at 50 µg/mL": 22
  }
]

Consider the record given below.
Look up inhibition at 50 µg/mL: Cc1nnsc1/C=C(\NC(=O)c1ccccc1)C(=O)O
86

* * *

This section presents molecules with their documented inhibition at 50 µg/mL values.
Test system: Phytophthora infestans (Mont) de Bary
Experiment: microbe, parasite or virus in culture
Type: cell-based
Conditions: Phytophthora infestans, read-out: Fungicidal activity, inhibition, PI
State the answer as a number, implicitly in %.

Field: example entries. Status: answers known.
[
  {
    "molecule": "O=C(N/C(=C\\c1cccs1)C(=O)N1CCC(O)(c2ccc(Br)cc2)CC1)c1ccccc1",
    "studyTarget": "Phytophthora infestans (Mont) de Bary",
    "inhibition at 50 µg/mL, %": 17
  },
  {
    "molecule": "O=C(NC(Cc1ccccc1)C(=O)N1CCC(O)(c2ccc(Br)cc2)CC1)C1CC1 (stereo not drawn)",
    "studyTarget": "Phytophthora infestans (Mont) de Bary",
    "inhibition at 50 µg/mL, %": 11
  },
  {
    "molecule": "O=C(N/C(=C\\c1ccc(Br)cc1)C(=O)N1CCC(O)(c2ccc(Br)cc2)CC1)c1ccccc1",
    "studyTarget": "Phytophthora infestans (Mont) de Bary",
    "inhibition at 50 µg/mL, %": 27
  },
  {
    "molecule": "O=C(OCc1ccc(Br)cc1)/C(=C/c1ccccc1)NC(=O)c1ccccc1",
    "studyTarget": "Phytophthora infestans (Mont) de Bary",
    "inhibition at 50 µg/mL, %": 11
  },
  {
    "molecule": "O=C(O)/C(=C/c1ccccc1)NC(=O)c1ccc(C(F)(F)F)cc1",
    "studyTarget": "Phytophthora infestans (Mont) de Bary",
    "inhibition at 50 µg/mL, %": 18
  },
  {
    "molecule": "CC(C)(C)OC(=O)N1CCC(c2nc(/C=C(\\NC(=O)c3ccccc3)C(=O)NCC(F)F)cs2)CC1",
    "studyTarget": "Phytophthora infestans (Mont) de Bary",
    "inhibition at 50 µg/mL, %": 38
  },
  {
    "molecule": "O=C(O)/C(=C/c1ccccc1)NC(=O)C1CC1",
    "studyTarget": "Phytophthora infestans (Mont) de Bary",
    "inhibition at 50 µg/mL, %": 13
  },
  {
    "molecule": "COC(=O)[C@H](C)NC(=O)/C(=C/c1ccccc1)NC(=O)c1ccccc1",
    "studyTarget": "Phytophthora infestans (Mont) de Bary",
    "inhibition at 50 µg/mL, %": 5
  }
]

Any idea what its inhibition at 50 µg/mL is? The molecule is O=C(N/C(=C\c1ccccc1)C(=O)N1CCC(O)(c2ccc(Br)cc2)CC1)c1ccc(Cl)cc1
16

* * *

Test system: Botrytis cinerea
Test: Fungicidal activity, fungi growth rate method, BC
Format: cell-based
Conditions: Botrytis cinerea; 50 μg/mL; read-out: Fungicidal activity, inhibition, BC
Binary call on inhibition at 50 µg/mL: Met from 20% upward, Not met beneath that.

Examples with answers:
[
  {
    "molecule": "O=C(N/C(=C\\c1ccc([N+](=O)[O-])cc1)C(=O)N1CCC(O)(c2ccc(Br)cc2)CC1)c1ccccc1 [Compound 23]",
    "classLabel": "Not met"
  },
  {
    "molecule": "O=C(N/C(=C\\c1ccccc1C(F)(F)F)C(=O)N1CCC(O)(c2ccc(Br)cc2)CC1)c1ccccc1 [Compound 22]",
    "classLabel": "Not met"
  },
  {
    "molecule": "O=C(O)/C(=C/c1ccccc1)NC(=O)C1CC1 [Compound 67]",
    "classLabel": "Not met"
  }
]

Test whether the molecule O=C(N/C(=C\c1ccco1)C(=O)N1CCC(O)(c2ccc(Br)cc2)CC1)C1CCCCC1 [Compound 63] records inhibition at 50 µg/mL of 20% or higher.
Met

Test whether the molecule Cc1snnc1/C=C(\NC(=O)c1ccccc1)C(=O)O [Compound 70] records inhibition at 50 µg/mL of 20% or higher.
Not met

Is reported inhibition at 50 µg/mL greater than or equal to 20% here: O=C(NCc1cccc(Br)c1)/C(=C/c1ccccc1)NC(=O)c1ccccc1 [Compound 51]
Met

Could you verify whether the entry COc1ccc(/C=C(\NC(=O)c2ccccc2)C(=O)N2CCC(O)(c3ccc(Br)cc3)CC2)cc1 [Compound 16] shows inhibition at 50 µg/mL of no less than 20%?
Met

Check this molecule for inhibition at 50 µg/mL at or above 20%: COC(=O)[C@H]1CCCN1C(=O)/C(=C/c1ccccc1)NC(=O)c1ccccc1 [Compound 37]
Met
